- System: Tobacco mosaic virus
- ASSAY NOTES: In vivo antiviral activity against tobacco mosaic virus assessed as protection activity at 500 ug/ml relative to control
- Assay type: functional
- PROTOCOL CONDITIONS: dose 500 µg/ml
MEASURED PROPERTY: Activity (%)
Give bare numbers, in %.

1. CCOC(=O)[C@H]1Cc2c([nH]c3ccccc23)[C@H](C)N1 : 47.9
2. C[C@@H]1N[C@@H](C(=O)NN)Cc2c1[nH]c1ccccc21 : 59.5
3. CNCC(=O)N[C@@H](CO)C(=O)N[C@H]1[C@H](O)[C@@H](O)[C@H](n2ccc(N)nc2=O)O[C@@H]1C(N)=O : 55
4. CC1N[C@H](C(=O)N/N=C/c2ccc(Cl)cc2)Cc2c1[nH]c1ccccc21 (some centres not stated) : 68.1
5. CC1N[C@@H](C(=O)N/N=C/C2CCCCC2)Cc2c1[nH]c1ccccc21 (some centres not stated) : 69.2
6. CC1N[C@@H](C(=O)N/N=C/c2ccc(Cl)cc2)Cc2c1[nH]c1ccccc21 (some centres not stated) : 64.2

Query block: Please report the recorded Activity for "CCCCOC(=O)[C@H]1Cc2c([nH]c3ccccc23)[C@H](C)N1" .
Result block: 43.2

---

- ASSAY TARGET: cGMP-specific 3',5'-cyclic phosphodiesterase (Homo sapiens, UniProt O76074)
- ASSAY NOTES: Inhibition of PDE5 (unknown origin)
MEASURED PROPERTY: pIC50
Answers are plain numbers, as −log10 of the molar value.

Query block: Please report the recorded pIC50 for COc1cccc2c1C(=O)N1CCc3c([nH]c4cccc(OC)c34)[C@@H]1C2C (stereo partly specified) .
Result block: 7.46

---

- ASSAY TARGET: cGMP-specific 3',5'-cyclic phosphodiesterase (Homo sapiens, UniProt O76074)
- ASSAY NOTES: Inhibition of human PDE5
MEASURED PROPERTY: IC50 (µM)
Give bare numbers, in µM.

Query block: Please report the recorded IC50 for COC(=O)c1cc2c(cn1)[nH]c1ccccc12 [BETA-CCM] .
Result block: 0.8

---

- ASSAY TARGET: Histone deacetylase 1 (Homo sapiens, UniProt Q13547)
- Sequence (Q13547 whole entry): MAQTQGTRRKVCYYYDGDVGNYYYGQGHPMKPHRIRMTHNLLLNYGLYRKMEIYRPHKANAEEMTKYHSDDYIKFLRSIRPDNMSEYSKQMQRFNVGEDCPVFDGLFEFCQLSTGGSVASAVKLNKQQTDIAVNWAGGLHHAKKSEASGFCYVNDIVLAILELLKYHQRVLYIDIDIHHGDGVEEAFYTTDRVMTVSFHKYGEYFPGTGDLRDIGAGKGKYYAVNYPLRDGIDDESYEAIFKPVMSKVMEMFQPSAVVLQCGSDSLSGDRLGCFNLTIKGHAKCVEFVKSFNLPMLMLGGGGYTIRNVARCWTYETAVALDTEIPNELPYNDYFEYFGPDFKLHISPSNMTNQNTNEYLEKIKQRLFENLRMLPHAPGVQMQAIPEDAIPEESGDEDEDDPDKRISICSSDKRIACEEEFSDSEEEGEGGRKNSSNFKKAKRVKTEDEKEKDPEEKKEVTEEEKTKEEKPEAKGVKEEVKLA
MEASURED PROPERTY: pIC50
Numbers only, as −log10 of the molar value.

Query block: Please report the recorded pIC50 for "O=C(Cc1cnc(N2CCC(CN3CC(=O)N4[C@H](c5ccc6c(c5)OCO6)c5[nH]c6ccccc6c5C[C@@H]4C3=O)CC2)nc1)NO" .
Result block: 6.71

---

- ASSAY TARGET: UniProt O76074
- ASSAY NOTES: Inhibition of human PDE5A using fluorescence-labelled substrate
MEASURED PROPERTY: IC50 (nM)
Numbers only, in nM.

Hey, quick one: what's IC50 for each of these?
1. O=C(CCCCCCN1CC(=O)N2[C@H](c3ccc(Br)cc3)c3[nH]c4ccccc4c3C[C@@H]2C1=O)NO
2. O=C(Cc1cnc(N2CCC(CN3CC(=O)N4[C@H](c5ccc6c(c5)OCO6)c5[nH]c6ccccc6c5C[C@@H]4C3=O)CC2)nc1)NO

Result block:
1: 46; 2: 653
